Test system: U251 cells
Assay: Hoechst viability assay 72 h / median-effect combination study
Conditions: Homo sapiens, U-251, 72 h, read-out: IC50 value for viability in U251 cells after 72 hours
Endpoint Label: IC50 (µM)
Unit µM implied. Number only.

Structure Smiles: Nc1ccccc1NC(=O)c1ccc(CNC(=O)OCc2cccnc2)cc1
Experimental Result: 2
--
Structure Smiles: C/C=C1\NC(=O)[C@H]2CSSCC/C=C/[C@H](CC(=O)N[C@H](C(C)C)C(=O)N2)OC(=O)[C@H](C(C)C)NC1=O
Experimental Result: 0.001
--
Structure Smiles: CCCC(CCC)C(=O)Nc1nc2c(ncn2COCCOC(=O)C(CCC)CCC)c(=O)[nH]1
Experimental Result: 20

Continue with the compound presented below.
Input: # input compound: CCCC(CCC)C(=O)O ; wanted: its IC50
Output: 3000
